# System: Escherichia coli TOP10;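 note: peptides expressed intracellularly from a pBAD plasmid library in pooled LB shake-flask culture, induced with 0.3% L-arabinose, DNA abundance read by NGS, three biological replicates, DESeq2 with apeglm shrinkage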
# test summary: shrunken log2 fold change of peptide-encoding DNA abundance (4.5 h post-induction vs induction); higher = less antimicrobial activity (less host growth inhibition)
# reported conditions: time post-induction: 4.5 h; library: site-saturation at positions 5, 18, 19, 20
Could you please report measured shrunken log2 fold change for the items listed next?
Give bare numbers.

Sample answers from the record:
[
  {
    "residue string": "RRIRQRPPRLPRPRPRPCTLPRP",
    "shrunken log2 fold change": -0.56
  },
  {
    "residue string": "RRIRTRPPRLPRPRPRPWDEPRP",
    "shrunken log2 fold change": -0.167
  },
  {
    "residue string": "RRIRRRPPRLPRPRPRPICCPRP",
    "shrunken log2 fold change": 0.213
  }
]

Quick batch: shrunken log2 fold change for everything below.
1. RRIRWRPPRLPRPRPRPIDQPRP
2. RRIRDRPPRLPRPRPRPHLQPRP
3. RRIRRRPPRLPRPRPRPLVKPRP

OUTPUT:
[0.105, 0.157, -0.179]
